The reported numbers originate from the supplement of paper PMC10724198.

Test system: Saccharomyces cerevisiae;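 also: PSI is a weighted mean of sequencing reads over stability bins, variants kept only with over 10 reads, mCherry proximal and sfGFP distal, peptide attached via GGGS linker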
Assay: protein stability index of tFT-peptide fusion (C-terminal peptide) (PSI (0-1 scale)); higher = more stable (slower turnover)
Details: genetic background: wild type; temperature: 30 C
quantityName: protein stability index
Lab note: jot the number down without any unit.

Looking for the measured protein stability index of "LVLLDQISVPLI" , can you help? 0.647

# iterate: "GSRWRISYQQVL" 0.623

How about this sequence: "DHSAPIIPMMKV" 0.624

Could you do the same for "SKKDMWMFVGEG" , please? 0.722

Same thing, different sequence: "ALASPPPTPSLV" 0.638

Now the same for "RVGYSIIIIGIE" 0.354

Thanks! And "SQTIRTGGLCHL" ? 0.886

Then "DSLWACVGSSAL" ? 0.771

What do we get for "RERPHSDYLACH" ? 0.691

// query: "SRVVTSRLVLSS" 0.606

Let us now turn to "RSGGDGCRALSV" 0.708

Another sequence to look at: "EFRQVDGRASRP" 0.701

What do you have for "LAWYPGYCYCCL" ? 0.598

Next sequence: "LMSGFFCGLLYA" 0.618

Try "YLFPFLCFSPPP" next. 0.702

Similarly, "KIKKNKNKKKKS" ? 0.686

Another: "PAGFQTPPLVHD" 0.708

Next: "PLSPRSASTFSP" 0.67

Please answer likewise for "GDRYFGTPAPSH" 0.757

Could you do the same for "SPPPMPLPLIPL" , please? 0.663

Same again, this time with "SLASSLHTYDLT" 0.661

Please do the same for "SSPTSSAPPPFL" as well. 0.697

// next record "QKAQLISQVNTG" 0.668

Now consider "LKFRETHIRNHP" . 0.701
